Assay: Single oral dose pharmacokinetic study in dogs, varying the testosterone dose (Example 1)
Assay type: in vivo, dogs (female beagles)
Settings: female, beagle, dog, serum, dose 25 mg, single oral, time 6 h
test readout: concentration at 6 h (ng/mL)
Give just the number in ng/mL; leave the unit off.

# input Provide concentration at 6 h value for the following molecule: C[C@]12CC[C@H]3[C@@H](CCC4=CC(=O)CC[C@@]43C)[C@@H]1CC[C@@H]2O
# output 0.53

Each recorded value in this set is attributed to patent US20040096498A1.
